- experimental_protocol: physchem
- Format: physicochemical
- condition_description: pH 5.99, aqueous with cosolvent or surfactant or cyclodextrin, thermodynamic from solid, 10% SBECD in 50 mM Citrate; RT/Ambient RH; pH 5.99; read-out: CPMM Amount (maximum solubility)
quantity: solubility

// query Query (compound): COC(=O)C1(OC(=O)c2cncn2[C@H](C)c2ccccc2)CC1 [CPMM] ; field requested: solubility
// result 5680 µg/mL

* * *

- experimental_protocol: physchem
- Format: physicochemical
- condition_description: aqueous buffer, thermodynamic from solid; 50 mM buffer pH 7 (phosphoric acid), actual pH 6.68; read-out: Actual [CPMM] Concentration (maximum solubility)
quantity: solubility

// query Query (compound): COC(=O)C1(OC(=O)c2cncn2[C@H](C)c2ccccc2)CC1 [CPMM] ; field requested: solubility
// result 0.268 mg/mL

* * *

- experimental_protocol: physchem
- Format: physicochemical
- condition_description: imidazole nitrogen in position 3; solubility analysis (log solubility curve) and titration
quantity: pKa

// query Query (compound): COC(=O)C1(OC(=O)c2cncn2[C@H](C)c2ccccc2)CC1 ; field requested: pKa
// result ~2.5

* * *

- experimental_protocol: physchem
- Format: physicochemical
- condition_description: aqueous buffer, thermodynamic from solid; 50 mM buffer pH 9 (phosphoric acid), actual pH 8.81; read-out: Actual [CPMM] Concentration (maximum solubility)
quantity: solubility (µg/mL)
Record the value in µg/mL, omitting the unit from your answer.

// query Query (compound): COC(=O)C1(OC(=O)c2cncn2[C@H](C)c2ccccc2)CC1 ; field requested: solubility
// result 279

* * *

- experimental_protocol: physchem
- Assay type: physicochemical
- condition_description: pH 6, aqueous with cosolvent or surfactant or cyclodextrin, thermodynamic from solid, 10% SBECD solutions at all citrate concentrations, regardless of the condition; read-out: solubility
- Procedure: A study was conducted to evaluate whether buffer concentration affects the maximum solubility of CPMM. […] The solutions were prepared and CPMM was added until saturation was achieved. […] Saturation was determined to have been achieved after the pH had stabilized and undissolved remained in the vial after overnight shaking. Solubility was evaluated by taking two separate samplings over the course of two days to verify that saturation had been achieved. […]
quantity: solubility

// query Query (compound): COC(=O)C1(OC(=O)c2cncn2[C@H](C)c2ccccc2)CC1 ; field requested: solubility
// result ~5500 µg/mL

* * *

- experimental_protocol: physchem
- Assay type: physicochemical
- condition_description: pH 5.96, aqueous buffer, thermodynamic from solid, 10 mM Citrate; RT/Ambient RH; pH 5.96; read-out: CPMM Amount (maximum solubility)
quantity: solubility (µg/mL)
Record the value in µg/mL, omitting the unit from your answer.

// query Query (compound): COC(=O)C1(OC(=O)c2cncn2[C@H](C)c2ccccc2)CC1 ; field requested: solubility
// result 300

* * *

- experimental_protocol: physchem
- Type: physicochemical
- condition_description: aqueous buffer, thermodynamic from solid; 50 mM buffer pH 4 (citric acid), actual pH 3.5; read-out: Actual [CPMM] Concentration (maximum solubility)
quantity: solubility
Numeric answer plus unit only.

// query Query (molecule): COC(=O)C1(OC(=O)c2cncn2[C@H](C)c2ccccc2)CC1 ; field requested: solubility
// result 0.677 mg/mL

* * *

- experimental_protocol: physchem
- Format: physicochemical
- condition_description: aqueous buffer, thermodynamic from solid; 50 mM buffer pH 5 (citric acid), actual pH 4.57; read-out: Actual [CPMM] Concentration (maximum solubility)
quantity: solubility (µg/mL)
Record the value in µg/mL, omitting the unit from your answer.

// query Query (molecule): COC(=O)C1(OC(=O)c2cncn2[C@H](C)c2ccccc2)CC1 ; field requested: solubility
// result 325
